Can you tell me log10 Kd for the items I'm about to list?
Molecular target: T1, human matriptase-2 ECD protein his tag (human, UniProt Q8IU80 78-811)
T1 construct: also called human MTP-2 ECD; huMTP-2
T1 sequence: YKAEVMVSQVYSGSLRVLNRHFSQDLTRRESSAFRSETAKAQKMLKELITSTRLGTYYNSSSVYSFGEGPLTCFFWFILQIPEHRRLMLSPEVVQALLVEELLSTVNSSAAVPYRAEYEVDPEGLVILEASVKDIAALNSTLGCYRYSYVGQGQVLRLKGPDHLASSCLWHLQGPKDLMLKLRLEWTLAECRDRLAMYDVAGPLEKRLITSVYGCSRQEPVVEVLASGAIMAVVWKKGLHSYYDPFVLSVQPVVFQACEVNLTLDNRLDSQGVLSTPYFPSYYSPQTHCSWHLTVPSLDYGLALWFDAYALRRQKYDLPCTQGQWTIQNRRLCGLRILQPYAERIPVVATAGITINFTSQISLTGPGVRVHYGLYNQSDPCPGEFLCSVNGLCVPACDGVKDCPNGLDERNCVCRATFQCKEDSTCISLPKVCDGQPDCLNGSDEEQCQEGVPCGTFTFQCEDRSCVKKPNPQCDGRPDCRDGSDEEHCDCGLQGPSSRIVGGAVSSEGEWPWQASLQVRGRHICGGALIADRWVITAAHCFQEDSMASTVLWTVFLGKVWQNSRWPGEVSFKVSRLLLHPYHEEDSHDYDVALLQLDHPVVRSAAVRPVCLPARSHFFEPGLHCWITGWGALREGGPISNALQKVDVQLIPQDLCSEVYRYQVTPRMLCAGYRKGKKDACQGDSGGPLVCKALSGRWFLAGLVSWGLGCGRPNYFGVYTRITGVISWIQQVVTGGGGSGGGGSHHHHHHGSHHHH
Experiment: SPR (Biacore 8K), huIgG4PE captured on anti-human Fc, MTP-2 ECD as analyte, 1:1 fit
The common logarithm of Kd in nM is what is listed.

// below: answered binders
NORI-012 (antibody, human IgG4 S228P, lambda, V domains shown, human IgG4PE, lambda) VH: EVQLVESGGGLVQPGRSLRLSCAASGFTFDDHVMYWVRQAPGKGLEWVSGISWNSDTIGYADAVKGRFTISRDNAKNVLYLHMNSLRPEDTALYYCAREKDGDFYYNYFVMDVWGQGTTVTVSP VL: QSALTQPPSASGSPGQSVTISCTGTSSDVGFYNFVSWYQQHPDKAPKVMIYEVSKRPSGVPDRFSGSKSGNTASLTVSGLQAEDEADYYCSSYAGSNKVVFGGGTKLTVLG | 0.96
NORI-013 (antibody, human IgG4 S228P, lambda, V domains shown, human IgG4PE, lambda) VH: EVQLVESGGGLIQAGRSLRLSCAASGFTFDEHVIYWVRQIPGKGLEWISSISWKSDIIAYADSVKGRFTISRDNAKNALYLQMNSLRAEDTALYYCAREKDGDFYYYYFAMDVWGQGTTVTVSS VL: QSALTQPPSASGSPGQSVTLSCTGTSSDVGYYNYVSWYLQHPGKAPKLMIYEVSKRPSGVPDRFSGSKSANTASLTVSGLQAEDEADYYCSSYAGSNKVVFGGGTKVTVLG | 0.25
NORI-014 (antibody, human IgG4 S228P, lambda, V domains shown, human IgG4PE, lambda) VH: EVQLVESGGGLIQAGRSLRLSCAASGFTFDEHVMYWVRQIPGKGLEWISSITWKSDIIAYADSVKGRFTISRDNAKNALYLQMNSLRAEDTALYYCAREKDGDFYYYYFAMDVWGQGTTVTVSS VL: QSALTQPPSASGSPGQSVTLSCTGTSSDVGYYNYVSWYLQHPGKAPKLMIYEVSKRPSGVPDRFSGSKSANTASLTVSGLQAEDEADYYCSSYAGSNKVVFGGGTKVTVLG | 0.23
NORI-008 (antibody, human IgG4 S228P, kappa, V domains shown, human IgG4PE, kappa, in the in vitro assays; a mouse IgG1 format was used in one in vivo study only; also called NORI-008 hulgG4PE; NORI-008 IgG) VH: QVQLQESGPGLVKPSETLSLTCSVSGGSVSSGRYYWTWIRQPPGKGLEWIGYISNSGNTNYNPSLKSRVTISLDTSKKQFSLSLSAVTAADTAVYYCARGFIYDYWFDPWGQGSLVTVSS VL: DSQMTQSPSSLSASVGDRVTITCQASQDIDNYLNWYQQRPGKAPKLLIYDASKLETGVPSRFSGSGSGTDFTFTISSLQPEDFATYYCQQYGNLPITFGQGTRLDIKR | -1.89

Attention now shifts to the item below.
// returns reported log10 Kd for input NORI-009 (antibody, human IgG4 S228P, lambda, V domains shown, human IgG4PE, lambda) VH: EVQLVESGGGLVQPGRSLRLSCAASGFTFNDHVIYWVRQVPGKGLEWVSTISWNSDTIAYADSVKGRFTISRDNAKNALYLQMNSLRTEDTALYYCAREKDGDFYYDYFAMDVWGQGTTVTVSS VL: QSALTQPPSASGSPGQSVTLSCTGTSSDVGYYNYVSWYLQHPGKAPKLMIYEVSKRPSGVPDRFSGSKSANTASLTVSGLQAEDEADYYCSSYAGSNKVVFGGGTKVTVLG
1.18
